# Test system: Yersinia pseudotuberculosis
# Measurement Notes: growth AUC normalised to DMSO control (fraction of control); higher = less growth inhibition, active = hit call of the paper
# Measurement Conditions: 20 µM
Counter-ions that a name gives are not always drawn.
Attribute Measured: growth AUC normalised to DMSO control
Please reply with the number alone, leaving off any unit.

Some solved entries appear below for comparison.
Compound | Subject Of Test | growth AUC normalised to DMSO control
Nc1ccccc1S(N)(=O)=O [o-Sulfanilamide] | Yersinia pseudotuberculosis | 0.99
CC(Cc1cccc(C(F)(F)F)c1)NCCOC(=O)c1ccccc1 (stereo not given) [Benfluorex] | Yersinia pseudotuberculosis | 1.01
C[C@H]1C[C@H]2[C@@H]3CCC4=CC(=O)C=C[C@]4(C)[C@@]3(F)[C@@H](O)C[C@]2(C)[C@@]1(O)C(=O)CO [Betamethasone] | Yersinia pseudotuberculosis | 0.988
CN1CCC(OC(c2ccccc2)c2ccccc2)CC1 [Diphenylpyraline hydrochloride] | Yersinia pseudotuberculosis | 0.987
CC(C)Cc1ccc([C@H](C)C(=O)O)cc1 [(S,+) Ibuprofen] | Yersinia pseudotuberculosis | 0.983
CCC1(c2ccccc2)C(=O)NCNC1=O [Primidone] | Yersinia pseudotuberculosis | 0.951
O=C(c1ccccc1)c1ccc2n1CCC2C(=O)O (stereo not given) [Ketorolac tromethamine] | Yersinia pseudotuberculosis | 0.983
Cn1c(=O)c2c(ncn2CC(O)CO)n(C)c1=O (stereo not given) [Diprophylline] | Yersinia pseudotuberculosis | 1

Q: Provide measured growth AUC normalised to DMSO control on Yersinia pseudotuberculosis for Clc1ccc(C(c2ccccc2Cl)C(Cl)Cl)cc1 (stereo not given) [Mitotane] please.
Ans: 1.02

Q: Report value: growth AUC normalised to DMSO control, system: Yersinia pseudotuberculosis, compound: NC(=O)NC1NC(=O)NC1=O (stereo not given) [Allantoin]
Ans: 0.989

From: the supplement of paper PMC12350171
